Data origin, for the record: patent US5310920A

tested on: resistant strain of Nephotettix cincticeptus Uhler - resistant green rice leafhopper; test: Test Example 6: Effect on resistant green rice leafhopper, LC50; assay type: in vivo; conditions: Nephotettix cincticeps, 48 h
Recorded LC50 values for a group of compounds are listed next.
Express your answer in µg/mL, writing the number without its unit.

Sample answers from the record:
O=[N+]([O-])N=C1N(C=Cc2ccccc2)CCN1Cc1ccc(Cl)nc1 :: 1.5
CC(C)C=CN1CCN(Cc2ccc(Cl)nc2)C1=N[N+](=O)[O-] :: 0.3
O=[N+]([O-])N=C1N(CCc2ccccc2)CCN1Cc1ccc(Cl)nc1 [Reference Chemical 2, reference compound] :: 10

Turning now to a further record.
Qu. Param readout = LC50; param system = resistant strain of Nephotettix cincticeptus Uhler - resistant green rice leafhopper; param query = C=CCN1CCN(Cc2ccc(Cl)nc2)C1=N[N+](=O)[O-] [Reference Chemical 1, reference compound] ; response: value
Ans. 3
